Tested on: KB tumor-bearing athymic nude mice
test-summary: Biodistribution of 177Lu-RedFols in KB tumor-bearing mice
Type: in vivo, mouse
condition-description: 24 h p.i.
measurement-name: Liver, accumulated activity (% IA/g)
Could you give me the number in % IA/g? Just the number is fine.

CN1c2c(nc(N)[nH]c2=O)NCC1CNc1ccc(C(=O)NC(CCC(=O)NC(CCCCNC(=O)CN2CCN(CC(=O)[O-])CCN(CC(=O)[O-])CCN(CC(=O)[O-])CC2)C(=O)NC(CCCCNC(=O)c2ccc(CNC(=O)CCCc3ccc(I)cc3)cc2)C(=O)O)C(=O)O)cc1.[177Lu+3] (stereo not drawn) [[^177Lu]Lu-6S-RedFol-3] ... 1.8
CN1c2c(nc(N)[nH]c2=O)NCC1CNc1ccc(C(=O)NC(CCC(=O)NC(CCCCNC(=O)CN2CCN(CC(=O)[O-])CCN(CC(=O)[O-])CCN(CC(=O)[O-])CC2)C(=O)NC(CCCCNC(=O)c2ccc(CNC(=O)CCCCc3ccc(I)cc3)cc2)C(=O)O)C(=O)O)cc1.[177Lu+3] (stereo not drawn) [[^177Lu]Lu-6S-RedFol-25] ... 0.56

GET /values?readout=Liver, accumulated activity&item= CN1c2c(nc(N)[nH]c2=O)NC[C@H]1CNc1ccc(C(=O)N[C@@H](CCC(=O)N[C@@H](CCCCNC(=O)CN2CCN(CC(=O)O)CCN(CC(=O)O)CCN(CC(=O)O)CC2)C(=O)N[C@@H](CCCCNC(=O)c2ccc(CNC(=O)CCCc3ccc(I)cc3)cc2)C(=O)O)C(=O)O)cc1 [[^177Lu]Lu-6R-RedFol-3, metal not drawn]
1.9

Same read-out for CN1c2c(nc(N)[nH]c2=O)NC[C@H]1CNc1ccc(C(=O)N[C@@H](CCC(=O)N[C@@H](CCCCNC(=O)CN2CCN(CC(=O)O)CCN(CC(=O)O)CCN(CC(=O)O)CC2)C(=O)N[C@@H](CCCCNC(=O)c2ccc(CNC(=O)CCCCc3ccc(I)cc3)cc2)C(=O)O)C(=O)O)cc1 [[^177Lu]Lu-6R-RedFol-25, metal not drawn] ?
1.5

Same read-out for CN1c2c(nc(N)[nH]c2=O)NC[C@H]1CNc1ccc(C(=O)N[C@@H](CCC(=O)N[C@@H](CCCCNC(=O)CN2CCN(CC(=O)O)CCN(CC(=O)O)CCN(CC(=O)O)CC2)C(=O)N[C@@H](CCCCNC(=O)CCCCc2ccc(I)cc2)C(=O)O)C(=O)O)cc1 [[^177Lu]Lu-6R-RedFol-24, metal not drawn] ?
1.2

---

System: KB tumor-bearing athymic nude mice
test-summary: Biodistribution of 177Lu-RedFols in KB tumor-bearing mice
Assay type: in vivo, mouse
condition-description: 4 h p.i.
measurement-name: Blood, accumulated activity (% IA/g)
Could you give me the number in % IA/g? Just the number is fine.

CN1c2c(nc(N)[nH]c2=O)NC[C@H]1CNc1ccc(C(=O)N[C@@H](CCC(=O)N[C@@H](CCCCNC(=O)CN2CCN(CC(=O)O)CCN(CC(=O)O)CCN(CC(=O)O)CC2)C(=O)N[C@@H](CCCCNC(=O)c2ccc(CNC(=O)CCCCc3ccc(I)cc3)cc2)C(=O)O)C(=O)O)cc1 [[^177Lu]Lu-6R-RedFol-25, metal not drawn] ... 6.1
CN1c2c(nc(N)[nH]c2=O)NC[C@H]1CNc1ccc(C(=O)N[C@@H](CCC(=O)N[C@@H](CCCCNC(=O)CN2CCN(CC(=O)O)CCN(CC(=O)O)CCN(CC(=O)O)CC2)C(=O)N[C@@H](CCCCNC(=O)CCCCc2ccc(I)cc2)C(=O)O)C(=O)O)cc1 [[^177Lu]Lu-6R-RedFol-24, metal not drawn] ... 3.2
CN1c2c(nc(N)[nH]c2=O)NCC1CNc1ccc(C(=O)NC(CCC(=O)NC(CCCCNC(=O)CN2CCN(CC(=O)[O-])CCN(CC(=O)[O-])CCN(CC(=O)[O-])CC2)C(=O)NC(CCCCNC(=O)c2ccc(CNC(=O)CCCCc3ccc(I)cc3)cc2)C(=O)O)C(=O)O)cc1.[177Lu+3] (stereo not drawn) [[^177Lu]Lu-6S-RedFol-25] ... 8.4
CN1c2c(nc(N)[nH]c2=O)NCC1CNc1ccc(C(=O)NC(CCC(=O)NC(CCCCNC(=O)CN2CCN(CC(=O)[O-])CCN(CC(=O)[O-])CCN(CC(=O)[O-])CC2)C(=O)NC(CCCCNC(=O)c2ccc(CNC(=O)CCCc3ccc(I)cc3)cc2)C(=O)O)C(=O)O)cc1.[177Lu+3] (stereo not drawn) [[^177Lu]Lu-6S-RedFol-3] ... 14

Now turn to the next molecule.
GET /values?readout=Blood, accumulated activity&item= CN1c2c(nc(N)[nH]c2=O)NC[C@H]1CNc1ccc(C(=O)N[C@@H](CCC(=O)N[C@@H](CCCCNC(=O)CN2CCN(CC(=O)O)CCN(CC(=O)O)CCN(CC(=O)O)CC2)C(=O)N[C@@H](CCCCNC(=O)c2ccc(CNC(=O)CCCc3ccc(I)cc3)cc2)C(=O)O)C(=O)O)cc1 [[^177Lu]Lu-6R-RedFol-3, metal not drawn]
17

Source listed as paper PMC10486429.
